folding stability dG: recorded values
B1: EEHEE_rd4_0763 (parent)
chain: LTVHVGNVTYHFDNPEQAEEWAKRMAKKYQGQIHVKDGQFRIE

# Variants of: B1
# PROCEDURE DETAILS: folding stability dG (cDNA display proteolysis); higher = more stable
# CONDITION LABEL: PBS, room temperature
EXPERIMENTAL ENDPOINT: folding stability dG (kcal/mol)

monomer_sequence="LTVHVGNVTYHFDAPEQAEEWAKRMAKKYQGQIHVKDGQFRIE [N14A]" reported_value=1.42
monomer_sequence="LTWHVGNVTYHFDNPEQAEEWAKRMAKKYQGQIHVKDGQFRIE [V3W]" reported_value=0.755
monomer_sequence="LTVHVGNVTYHPDNPEQAEEWAKRMAKKYQGQIHVKDGQFRIE [F12P]" reported_value=-0.199
monomer_sequence="LTVHVGNVAYHFDNPEQAEEWAKRMAKKYQGQIHVKDGQFRIE [T9A]" reported_value=1.58
monomer_sequence="LTVHVGNVGYHFDNPEQAEEWAKRMAKKYQGQIHVKDGQFRIE [T9G]" reported_value=0.696
monomer_sequence="LTVHVGNVTYHFDNPEQAEEWAKRMANKYQGQIHVKDGQFRIE [K27N]" reported_value=1.39
monomer_sequence="LTVHVGNVTYHFDNPEQAEEDAKRMAKKYQGQIHVKDGQFRIE [W21D]" reported_value=-0.466
monomer_sequence="LTVHVGNVTYHFDNPEQAEEWAKRMAKKYQGQIHVKDGQMRIE [F40M]" reported_value=1.74
monomer_sequence="LTVHVGNVTYHFDNPEQAEEWAKRMAKKYQGQIHGKDGQFRIE [V35G]" reported_value=0.956
monomer_sequence="LTVHVGNVTYHFDNPEQAEEWIKRMAKKYQGQIHVKDGQFRIE [A22I]" reported_value=1.4
monomer_sequence="LTVHVGNVTYHFDNPEQAEEWAKRMAKKYQGQIHVKDGQFWIE [R41W]" reported_value=3.13
monomer_sequence="LTVHVGNVTYHFDNPEQAEEWAKRMAKKDQGQIHVKDGQFRIE [Y29D]" reported_value=0.496
monomer_sequence="LTVHVGNVTYHFDNPEQAEEWAKRMAKKYQGQIHVKDGQFRNE [I42N]" reported_value=1.05
monomer_sequence="LTVHVGNVTYHFDNPEQAEEWAKRMAKKYQGQIHVKDKQFRIE [G38K]" reported_value=0.828
monomer_sequence="LTVHVGNVTYHFDNPEQAEEMAKRMAKKYQGQIHVKDGQFRIE [W21M]" reported_value=0.944
monomer_sequence="LTVHVGNVTYHFDNPEQAEEWAKRMSKKYQGQIHVKDGQFRIE [A26S]" reported_value=1.14
monomer_sequence="LTVHVGNVTYHFDNPEQAEEWAKRMAKKMQGQIHVKDGQFRIE [Y29M]" reported_value=1.35
monomer_sequence="LTVHVGNVTYHWDNPEQAEEWAKRMAKKYQGQIHVKDGQFRIE [F12W]" reported_value=0.638
monomer_sequence="LTVHVGNVTYHFDNPEQAEEWAKRMAKKYQGLIHVKDGQFRIE [Q32L]" reported_value=1.48
monomer_sequence="LTVDVGNVTYHFDNPEQAEEWAKRMAKKYQGQIHVKDGQFRIE [H4D]" reported_value=0.78
monomer_sequence="LTVHVGNVTYHFDNPEQAEEWAKRMAKKYQGQIHVKGGQFRIE [D37G]" reported_value=1.12
monomer_sequence="LTVHVGNVTYHFDNPEQAEEWAKRMAKKYQGQIDVKDGQFRIE [H34D]" reported_value=1.26
monomer_sequence="LTVHVGNVTYHFDNPEQAEEWAKRMAKWYQGQIHVKDGQFRIE [K28W]" reported_value=1.6
monomer_sequence="LTVHVGNVTYHFDNPEQAEEWAKRMAKKYQGQIHVKDGQFPIE [R41P]" reported_value=1.21
monomer_sequence="LTVHVGNVTYHFDNPEQAEEWAKRMEKKYQGQIHVKDGQFRIE [A26E]" reported_value=0.642
monomer_sequence="LTVHVGNVTYHFDNPHQAEEWAKRMAKKYQGQIHVKDGQFRIE [E16H]" reported_value=1.85
monomer_sequence="PTVHVGNVTYHFDNPEQAEEWAKRMAKKYQGQIHVKDGQFRIE [L1P]" reported_value=1.73
monomer_sequence="LTVHVGNVTYHFDTPEQAEEWAKRMAKKYQGQIHVKDGQFRIE [N14T]" reported_value=1.76
monomer_sequence="LTVHVGNVTYHFDNPEQAEEWAKRMAKKYQGQIHVKQGQFRIE [D37Q]" reported_value=0.814
monomer_sequence="LTVHVHNVTYHFDNPEQAEEWAKRMAKKYQGQIHVKDGQFRIE [G6H]" reported_value=1.69
monomer_sequence="LTVHNGNVTYHFDNPEQAEEWAKRMAKKYQGQIHVKDGQFRIE [V5N]" reported_value=0.616
monomer_sequence="LTVHVGNVTYHFYNPEQAEEWAKRMAKKYQGQIHVKDGQFRIE [D13Y]" reported_value=1.34
monomer_sequence="LTVHVANVTYHFDNPEQAEEWAKRMAKKYQGQIHVKDGQFRIE [G6A]" reported_value=1.41
monomer_sequence="LTVHVGNVTYHFDNPEQAEELAKRMAKKYQGQIHVKDGQFRIE [W21L]" reported_value=0.668
monomer_sequence="LTVHVGNVTYHFDNPEQAEEWAKRMAKKYQGQIHVKDGQFVIE [R41V]" reported_value=2.45
monomer_sequence="LTVHVGNVTVHFDNPEQAEEWAKRMAKKYQGQIHVKDGQFRIE [Y10V]" reported_value=0.913
monomer_sequence="LTVHVGNVTYAFDNPEQAEEWAKRMAKKYQGQIHVKDGQFRIE [H11A]" reported_value=1.31
monomer_sequence="LTVHVGNGTYHFDNPEQAEEWAKRMAKKYQGQIHVKDGQFRIE [V8G]" reported_value=0.756
monomer_sequence="LTVHVGNVTYHFKNPEQAEEWAKRMAKKYQGQIHVKDGQFRIE [D13K]" reported_value=1.67
monomer_sequence="LTVHVGNVTYHFDNPEQAEEWAKRMAKKYQGQIHVKDGQFRIK [E43K]" reported_value=1.23
monomer_sequence="LTVHVGNVTTHFDNPEQAEEWAKRMAKKYQGQIHVKDGQFRIE [Y10T]" reported_value=0.369
monomer_sequence="LTVHVGNVTYGFDNPEQAEEWAKRMAKKYQGQIHVKDGQFRIE [H11G]" reported_value=0.755
monomer_sequence="LTVHVGNVTYHFDNPEQAEEWAKRMAKKYQGQIHVKDAQFRIE [G38A]" reported_value=0.755
monomer_sequence="LTVHVGNVTYHFDNPEQAEEWAKDMAKKYQGQIHVKDGQFRIE [R24D]" reported_value=0.976
monomer_sequence="LTVHVGNVTDHFDNPEQAEEWAKRMAKKYQGQIHVKDGQFRIE [Y10D]" reported_value=0.031
monomer_sequence="LTVHVGNVTYHFDNPEQAEEWAKRMAKKYQGQIHVKDGIFRIE [Q39I]" reported_value=1.52
monomer_sequence="LTVHVGNVTYHFDNPEQMEEWAKRMAKKYQGQIHVKDGQFRIE [A18M]" reported_value=1.21
monomer_sequence="LTVHVGNVTYHYDNPEQAEEWAKRMAKKYQGQIHVKDGQFRIE [F12Y]" reported_value=0.446
monomer_sequence="LFVHVGNVTYHFDNPEQAEEWAKRMAKKYQGQIHVKDGQFRIE [T2F]" reported_value=1.58
monomer_sequence="LTVHVGNVTYHFDNPEQAEEWAPRMAKKYQGQIHVKDGQFRIE [K23P]" reported_value=-0.41
monomer_sequence="LTVHVGNVTYHFDNPEQAEEWAKRIAKKYQGQIHVKDGQFRIE [M25I]" reported_value=1.44
monomer_sequence="LTVHVGNVTYHFDNPEQAEEWAKRMAKKYQGQIHVKDGQFRYE [I42Y]" reported_value=1.12
monomer_sequence="LTVHVGNVTYHNDNPEQAEEWAKRMAKKYQGQIHVKDGQFRIE [F12N]" reported_value=-0.088
monomer_sequence="LTVHVGNVTYHFDNPEQAEEWAKRMAKKYQGQIHVKDGQRRIE [F40R]" reported_value=1
monomer_sequence="LTVHVGNVTYHFDNPEQAEEWAKRMAKKYQNQIHVKDGQFRIE [G31N]" reported_value=1.02
monomer_sequence="LTVHVGNVTYHEDNPEQAEEWAKRMAKKYQGQIHVKDGQFRIE [F12E]" reported_value=-0.274
monomer_sequence="LTVHVGNVPYHFDNPEQAEEWAKRMAKKYQGQIHVKDGQFRIE [T9P]" reported_value=0.963
monomer_sequence="LTVHVGNVTYHFDNPEQAEEFAKRMAKKYQGQIHVKDGQFRIE [W21F]" reported_value=2.28
monomer_sequence="LYVHVGNVTYHFDNPEQAEEWAKRMAKKYQGQIHVKDGQFRIE [T2Y]" reported_value=1.59
monomer_sequence="LTVHVKNVTYHFDNPEQAEEWAKRMAKKYQGQIHVKDGQFRIE [G6K]" reported_value=1.18
monomer_sequence="LTVHVGNVTYHFDNPEQAERWAKRMAKKYQGQIHVKDGQFRIE [E20R]" reported_value=1.81
monomer_sequence="LTVHVGNVSYHFDNPEQAEEWAKRMAKKYQGQIHVKDGQFRIE [T9S]" reported_value=1.4
monomer_sequence="LTVHVGNVTYHFDNPEQAEEWAKRMAKKYQGQINVKDGQFRIE [H34N]" reported_value=1.52
monomer_sequence="LTVNVGNVTYHFDNPEQAEEWAKRMAKKYQGQIHVKDGQFRIE [H4N]" reported_value=1.27
monomer_sequence="LTVHVGNVTYHFDNPEQAEEWAKRMAKKYQGQIHVKSGQFRIE [D37S]" reported_value=0.634
monomer_sequence="LTVHVGNVTYHFDNPEQAEEWSKRMAKKYQGQIHVKDGQFRIE [A22S]" reported_value=0.821
monomer_sequence="LTVHVGNVTYHFWNPEQAEEWAKRMAKKYQGQIHVKDGQFRIE [D13W]" reported_value=1.4
monomer_sequence="LTVHVGNVTYHFDNPEQAEKWAKRMAKKYQGQIHVKDGQFRIE [E20K]" reported_value=1.8
monomer_sequence="LTVHVGNVTYHFDNPEQAEEWAKRMAKKYQGGIHVKDGQFRIE [Q32G]" reported_value=1.01
monomer_sequence="LTVHVGNVTYHFDNPEQAEEWAKRMAKKYQGQIHVKDGQFRLE [I42L]" reported_value=0.845
monomer_sequence="LTVHVGNVTYHFDNPEQAEEWAKRNAKKYQGQIHVKDGQFRIE [M25N]" reported_value=0.629
monomer_sequence="LTVHVGNVTYHFDNPEQAEEWAKRMAKKYQGQIHFKDGQFRIE [V35F]" reported_value=2.22
monomer_sequence="LTVHVGNVTYHFDNPEQAEEWAKRMAKKYQFQIHVKDGQFRIE [G31F]" reported_value=1.69
monomer_sequence="LTVHVGNVTYHFDHPEQAEEWAKRMAKKYQGQIHVKDGQFRIE [N14H]" reported_value=1.57
monomer_sequence="LTVHVGNVTYHFDNPEQAEEWAKRMAKKYQGKIHVKDGQFRIE [Q32K]" reported_value=1.71
monomer_sequence="LTVHVGNVTYHFDNPKQAEEWAKRMAKKYQGQIHVKDGQFRIE [E16K]" reported_value=1.77
monomer_sequence="LTVHPGNVTYHFDNPEQAEEWAKRMAKKYQGQIHVKDGQFRIE [V5P]" reported_value=0.391
monomer_sequence="LTVHVGNVTYHFDNPEQAEEWAKRMAKKYQGQIHVKDGQFRIM [E43M]" reported_value=1.5
monomer_sequence="LTVHVGNVTYHFDNEEQAEEWAKRMAKKYQGQIHVKDGQFRIE [P15E]" reported_value=1.47
monomer_sequence="LTVHVGNVTYHFDNPEQAWEWAKRMAKKYQGQIHVKDGQFRIE [E19W]" reported_value=2.63
monomer_sequence="LTVHVGNRTYHFDNPEQAEEWAKRMAKKYQGQIHVKDGQFRIE [V8R]" reported_value=1.96
monomer_sequence="LTVHVGNVTYHFDNPEQAEEWANRMAKKYQGQIHVKDGQFRIE [K23N]" reported_value=1.38
monomer_sequence="LTVHVGNVTYHFDNPEQASEWAKRMAKKYQGQIHVKDGQFRIE [E19S]" reported_value=1.39
monomer_sequence="LTVHVGNVTYHFDNPEQAEEWAKRMAKKIQGQIHVKDGQFRIE [Y29I]" reported_value=1.32
monomer_sequence="LTVHVGNVTYHFDNPEQAEEWAKRMAKKYQGQITVKDGQFRIE [H34T]" reported_value=2.03
monomer_sequence="LTVHVGNVTYHFDNPEQAEEWAKQMAKKYQGQIHVKDGQFRIE [R24Q]" reported_value=1.54
monomer_sequence="LTVHVGNVTYHFDNPEQAEEWAKRMAKHYQGQIHVKDGQFRIE [K28H]" reported_value=1.53
monomer_sequence="LTVHVGNVTYHFDNPEQAEEWRKRMAKKYQGQIHVKDGQFRIE [A22R]" reported_value=1.01
monomer_sequence="LTVHVGNVTYHFDNPEQAEEWAKRMAKKYQGQIHVKWGQFRIE [D37W]" reported_value=0.774
monomer_sequence="LTVHVGNVTYHFDNPEQAEEWAKRMAKKYQGQIHVKDLQFRIE [G38L]" reported_value=1.18
monomer_sequence="LTVHVGNVTYHFDNPEQAEEWAKRMAKKYQGQIHVKDGQFHIE [R41H]" reported_value=2.48
